# reported Km; entries follow
- Substrate: CC(C)C[C@@H](N)C(=O)O
- Assay protocol: purified protein
- Test conditions: 50 mM potassium phosphate pH 8.0, 30 °C, air-saturated
# number only, unit µM dropped from output

// solved cases for Km follow
1) TvDAAO (Trigonopsis variabilis; S336A) (protein) MAKIVVIGAGVAGLTTALQLLRKGHEVTIVSEFTPGDLSIGYTSPWAGANWLTFYDGGKLADYDAVSYPILRELARSSPEAGIRLISQRSHVLKRDLPKLEVAMSAICQRNPWFKNTVDSFEIIEDRSRIVHDDVAYLVEFRSVCIHTGVYLNWLMSQCLSLGATVVKRRVNHIKDANLLHSSGSRPDVIVNCSGLFARFLGGVEDKKMYPIRGQVVLVRNSLPFMASFSSTPEKENEDEALYIMTRFDGTSIIGGCFQPNNWSSEPDPSLTHRILSRALDRFPELTKDGPLDIVRECVGHRPGREGGPRVELEKIPGVGFVVHNYGAAGAGYQSAYGMADEAVSYVERALTRPNL
70
2) TvDAAO (Trigonopsis variabilis; S277A) (protein) MAKIVVIGAGVAGLTTALQLLRKGHEVTIVSEFTPGDLSIGYTSPWAGANWLTFYDGGKLADYDAVSYPILRELARSSPEAGIRLISQRSHVLKRDLPKLEVAMSAICQRNPWFKNTVDSFEIIEDRSRIVHDDVAYLVEFRSVCIHTGVYLNWLMSQCLSLGATVVKRRVNHIKDANLLHSSGSRPDVIVNCSGLFARFLGGVEDKKMYPIRGQVVLVRNSLPFMASFSSTPEKENEDEALYIMTRFDGTSIIGGCFQPNNWSSEPDPSLTHRILARALDRFPELTKDGPLDIVRECVGHRPGREGGPRVELEKIPGVGFVVHNYGAAGAGYQSSYGMADEAVSYVERALTRPNL
150

Shift focus to the following entry.
May I ask what Km has been recorded for TvDAAO (Trigonopsis variabilis) (protein, recombinant tvdaao gene in pET-33b(+) based plasmid, E. coli BL21(DE3) CodonPlus/pLysS; MonoQ purified; FAD homodimer; no tag stated) MAKIVVIGAGVAGLTTALQLLRKGHEVTIVSEFTPGDLSIGYTSPWAGANWLTFYDGGKLADYDAVSYPILRELARSSPEAGIRLISQRSHVLKRDLPKLEVAMSAICQRNPWFKNTVDSFEIIEDRSRIVHDDVAYLVEFRSVCIHTGVYLNWLMSQCLSLGATVVKRRVNHIKDANLLHSSGSRPDVIVNCSGLFARFLGGVEDKKMYPIRGQVVLVRNSLPFMASFSSTPEKENEDEALYIMTRFDGTSIIGGCFQPNNWSSEPDPSLTHRILSRALDRFPELTKDGPLDIVRECVGHRPGREGGPRVELEKIPGVGFVVHNYGAAGAGYQSSYGMADEAVSYVERALTRPNL ?
780
